Test system: Puccinia recondita (Brown rust)
METHOD NOTES: Example B: comparative biological activity against Puccinia recondita (brown rust), curative, wheat leaf segments
Format: in vivo
CONDITIONS: 200 ppm, 8 dpi
METRIC NAME: control (%)

> print(dat)
                                   compound  observed.result
1  CO/C=C(\Oc1cc(C#CC2CCCCC2)ccc1C)C(=O)OC [Reference Compound Z-1, reference compound]               0%
2       CO/C=C(\Oc1cc(C2CCCC2)ccc1C)C(=O)OC             100%
3  CO/C=C(\Oc1cccc(C(C)(C)C)c1)C(=O)OC [Reference Compound Z-2, reference compound]               0%
4      CO/C=C(\Oc1cc(C2CCCCC2)ccc1C)C(=O)OC             100%

Cited source: patent US12532884B2
